Literature-derived pKi for UniProt:P21396 follows.
- tgt: UniProt:P21396
- Sequence (P21396 whole entry): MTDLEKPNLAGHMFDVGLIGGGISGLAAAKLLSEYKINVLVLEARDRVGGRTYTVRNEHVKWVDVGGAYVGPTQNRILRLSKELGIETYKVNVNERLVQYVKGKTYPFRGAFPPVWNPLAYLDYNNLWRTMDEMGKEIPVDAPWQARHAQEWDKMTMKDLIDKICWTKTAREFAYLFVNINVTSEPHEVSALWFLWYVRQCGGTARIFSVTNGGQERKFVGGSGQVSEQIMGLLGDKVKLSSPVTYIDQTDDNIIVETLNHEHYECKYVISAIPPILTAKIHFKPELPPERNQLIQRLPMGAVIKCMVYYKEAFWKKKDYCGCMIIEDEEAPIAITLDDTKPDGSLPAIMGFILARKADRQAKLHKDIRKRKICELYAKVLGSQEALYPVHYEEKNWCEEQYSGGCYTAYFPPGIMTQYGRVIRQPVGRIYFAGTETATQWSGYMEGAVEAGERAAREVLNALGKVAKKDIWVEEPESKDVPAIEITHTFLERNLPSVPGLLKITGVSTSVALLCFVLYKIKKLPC
pKi: −log10 of the molar value.
measured-quantity: pKi

| compound | measured |
| --- | --- |
| O=C1c2ccccc2S(=O)(=O)c2cc(C3=NCCN3)ccc21 | 7.10 |
| Cc1ccccc1NC(=S)N1N=C(c2ccc(O)cc2)CC1c1cccs1 (stereo unspecified) | 6.55 |
| COc1ccc(NC(=S)N2N=C(c3ccc(O)cc3)CC2c2cccs2)cc1 (stereo unspecified) | 6.30 |
| CCCOc1ccc(C2CNC(=O)CS2)cc1 (racemic) | 5.06 |
| Cl.S=C(Nc1ccccc1)N1N=C(c2ccc(Cl)cc2)CC1c1ccc[nH]1 (stereo unspecified) | 4.22 |
| Cc1ccc(C(/C=C/c2ccco2)=N\Nc2nc3ccccc3c(=O)n2C)cc1 | 3.74 |
| c1ccc(C2CC(c3c4ccccc4cc4ccccc34)=NN2)nc1 (stereo unspecified) | 6.62 |
| Cn1c(NN)nc2ccccc2c1=O | 4.60 |
| NC(=S)N1NC2=C(CCCC2)C1c1ccco1 (stereo unspecified) | 5.41 |
| O=C(c1ccccc1)N1N=C(c2ccccc2O)CC1c1ccc(O)cc1 (stereo unspecified) | 5.24 |
| Cn1c(N2N=C(c3ccccc3)CC2c2cccc(Cl)c2)nc2ccccc2c1=O (stereo unspecified) | 6.05 |

----------
// read-out pKi, gathered for UniProt P21396 from published studies
- tgt: UniProt P21396
- Sequence (P21396 whole entry): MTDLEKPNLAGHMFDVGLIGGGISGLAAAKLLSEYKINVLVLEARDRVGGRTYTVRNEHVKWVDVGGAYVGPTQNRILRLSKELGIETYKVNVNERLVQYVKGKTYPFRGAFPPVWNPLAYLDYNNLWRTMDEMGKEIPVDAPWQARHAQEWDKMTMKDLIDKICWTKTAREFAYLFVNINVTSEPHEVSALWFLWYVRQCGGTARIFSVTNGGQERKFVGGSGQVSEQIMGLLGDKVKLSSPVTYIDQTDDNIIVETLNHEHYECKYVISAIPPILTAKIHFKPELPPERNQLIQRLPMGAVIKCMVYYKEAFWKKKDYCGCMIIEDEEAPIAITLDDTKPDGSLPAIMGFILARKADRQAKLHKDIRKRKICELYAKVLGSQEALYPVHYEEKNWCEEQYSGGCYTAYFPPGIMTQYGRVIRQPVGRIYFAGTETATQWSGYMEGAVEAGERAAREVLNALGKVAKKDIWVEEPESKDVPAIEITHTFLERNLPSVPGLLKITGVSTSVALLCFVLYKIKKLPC
pKi: −log10 of the molar value.

| compound | pKi |
| --- | --- |
| O=S(=O)(c1ccccc1)N1N=C(c2ccccc2O)CC1c1ccccc1O (stereo unspecified) | 6.04 |
| N=C(NO)N1N=C(c2ccccc2O)CC1c1ccccc1O (stereo unspecified) | 4.81 |
| COc1ccccc1NC(=S)N1N=C(c2ccc(O)cc2)CC1c1cccs1 (stereo unspecified) | 6.52 |
| Oc1ccc(C2=NN(C(=S)Nc3ccccc3)C(c3ccco3)C2)cc1 (stereo unspecified) | 6.15 |
| Cc1cccc(NC(=S)N2N=C(c3ccc(O)cc3)CC2c2ccco2)c1 (stereo unspecified) | 6.23 |
| Cn1c(N/N=C(/C=C/c2ccccc2)c2ccccc2)nc2ccccc2c1=O | 4.47 |
